tgt: 5HT2 receptors (Rattus norvegicus)
Construct: their external jugular veins and thoracic aortas dissected free of connective tissue; from tissue; host or cells: external jugular vein of male Wistar rats
Sequence (P14842 whole entry): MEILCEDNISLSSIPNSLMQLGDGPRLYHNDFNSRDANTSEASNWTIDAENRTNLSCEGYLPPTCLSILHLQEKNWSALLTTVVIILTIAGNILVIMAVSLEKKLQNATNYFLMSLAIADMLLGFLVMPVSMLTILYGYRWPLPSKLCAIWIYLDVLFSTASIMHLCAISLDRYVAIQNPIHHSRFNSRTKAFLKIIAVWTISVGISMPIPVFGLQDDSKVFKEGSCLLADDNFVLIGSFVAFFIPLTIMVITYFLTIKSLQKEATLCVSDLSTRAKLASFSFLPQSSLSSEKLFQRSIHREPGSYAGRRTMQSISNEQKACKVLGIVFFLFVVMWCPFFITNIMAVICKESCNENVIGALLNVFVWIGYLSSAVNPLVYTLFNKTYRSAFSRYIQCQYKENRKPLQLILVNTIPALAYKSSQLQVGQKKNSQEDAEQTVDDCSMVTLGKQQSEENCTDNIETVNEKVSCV
testMethodNotes: Apparent dissociation constants (KB) for 5HT2 receptors determined in the rat jugular vein (antagonism of serotonin contraction)
conditionNotes: antagonist incubated one hour, 37° C., maleate salt, read-out: Apparent Dissociation Constants for 5HT2 receptors, -Log Kb ± S.E. (converted)
Protocol: An initial optimum resting force of 1 and 4 g was applied to the jugular vein and aorta, respectively. […] Exp. Ther., 205, 400 (1978). Alpha receptor antagonist activity was evaluated in the aorta.

compound | Kb / nM
CC(C)n1cc2c3c(cccc31)[C@H]1C[C@@H](C(=O)OC3CCOCC3)CN(C)[C@@H]1C2 | 0.129
CC(C)n1cc2c3c(cccc31)[C@H]1C[C@@H](C(=O)OCC3CCCO3)CN(C)[C@@H]1C2 (stereo partly shown) | 6.31
CC(C)n1cc2c3c(cccc31)[C@H]1C[C@@H](C(=O)OCC3CCCCO3)CN(C)[C@@H]1C2 (stereo partly shown) | 1.91
CC(C)n1cc2c3c(cccc31)[C@H]1C[C@@H](C(=O)OCCCC3CCCO3)CN(C)[C@@H]1C2 (stereo partly shown) | 5.62
